B1: tRNA (parent)
chain: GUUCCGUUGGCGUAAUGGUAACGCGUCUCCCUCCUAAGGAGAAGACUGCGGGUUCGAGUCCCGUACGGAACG

Variants of: B1
TEST PROTOCOL: yeast fitness, log relative to wild type (ln ratio); higher = fitter; tRNA-Arg(CCU), competitive growth, 37 C, 1 M NaCl
RECORDED METRIC: yeast fitness (ln)

Guide cases for yeast fitness (ln), answers given:
>>> obs_value("AGUCCAUUGGCGUAAUGGUAACGCGUUUCCCUCCUAAGGAGACGACUGCGGGUUCGAGUCCCGUAAGGGGUG")
-0.351
>>> obs_value("AGUCCGUUGGCGUAAUGGUAACGCGUUUCCCUCCUAAGGAGACGACUGCGGGUUCGAGUCCCGUAAGGAGCG")
-0.255
>>> obs_value("GUUCCGUUGGCGUAAUGGUAACGCGUCUCCCUCCUAAGGAGAAGAUUGCGGGUUCGAGUCCCGUAAGGAGUG")
-0.0671
>>> obs_value("GCUCCAUUGGCGUAAUGGUAACGCGUCUCCCUCCUAAGGAGAAGACUGCGGGUUCGAGUCCCGUAUGGGACG")
-0.271
>>> obs_value("AUUCCGUUGGCGUAAUGGUAACGCGUCUCCCUCCUAAGGAGACGACUGCGGGUUCGAGUCCCGUACGGAUCG")
-0.13

# variant AGUCCAUUGGCGUAAUGGUAACGCGUCUCCCUCCUAAGGAGACGAUUGCGGGUUCGAGUCCCGUAUGGAUCG ; its yeast fitness (ln) = -0.306

# variant GCUCCAUUGGCGUAAUGGUAACGCGUCUCCCUCCUAAGGAGACGAUUGCGGGUUCGAGUCCCGUACGGAGCG ; its yeast fitness (ln) = -0.0922

# variant GUUCCUUUGGCGUAAUGGUAACGCGUCUCCCUCCUAAGGAGAAGACUGCGGGUUCGAGUCCCGUAUGGAACG ; its yeast fitness (ln) = -0.0366

# variant ACUCCGUUGGCGUAAUGGUAACGCGUUUCCCUCCUAAGGAGAAGAUUGCGGGUUCGAGUCCCGUACGGGUCG ; its yeast fitness (ln) = -0.0465

# variant GCUCCUUUGGCGUAAUGGUAACGCGUUUCCCUCCUAAGGAGAAGAUUGCGGGUUCGAGUCCCGUAAGGAGUG ; its yeast fitness (ln) = -0.0247

# variant GGUCCGUUGGCGUAAUGGUAACGCGUCUCCCUCCUAAGGAGAAGAUUGCGGGUUCGAGUCCCGUAAGGAAUG ; its yeast fitness (ln) = -0.0426
